For each of the substances below, state its reticulocytes.
- Experiment Notes: Hematology assays in cynomolgus monkeys (Example 45)
- Format: in vivo
- Measurement Conditions: day 57
Number only, in %; omit the unit.

Inquiry: I have this substance here, ISIS 416864: MOE gapmer, nucleobases 1275 to 1318 of SEQ ID NO: 1 (Table 8) (antisense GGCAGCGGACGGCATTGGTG; MOE gapmer, wing and gap sizes not given here) , and I need its recorded reticulocytes.
Reply text: 1.0

Inquiry: Field entry: ISIS 417002: MOE gapmer, nucleobases 1275 to 1318 of SEQ ID NO: 1 (Table 8) (antisense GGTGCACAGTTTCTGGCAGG; MOE gapmer, wing and gap sizes not given here)
Reply text: 4.6

Inquiry: Request: ISIS 416858: MOE gapmer, nucleobases 1275 to 1318 of SEQ ID NO: 1 (Table 8) (antisense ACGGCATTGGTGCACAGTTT; MOE gapmer, wing and gap sizes not given here)
Reply text: 1.4

Inquiry: Another substance to look at: ISIS 416838: MOE gapmer, nucleobases 1018 to 1042 of SEQ ID NO: 1 (Table 6) (antisense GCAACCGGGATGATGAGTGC; MOE gapmer, wing and gap sizes not given here)
Reply text: 1.5

Inquiry: What about this substance? ISIS 416850: MOE gapmer, nucleobases 1275 to 1318 of SEQ ID NO: 1 (Table 8) (antisense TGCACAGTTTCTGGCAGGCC; MOE gapmer, wing and gap sizes not given here)
Reply text: 2.0
